Consider the following compounds; for each one, report its normalized growth.
- method: chemical genetic growth profiling, strain panel (AID 1159580);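 note: tested at 20 µM; growth read once vehicle control cultures reached saturation at 30 °C; 1 = growth at the plate median or of vehicle wells; lower values mean less growth of the strain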
- condition.notes: S. cerevisiae deletion strains, growth OD, locus YNL250W, strain rad50, hits give low values
The campaign covered roughly 5,500 compounds. About 2,000 (36%) were called active. Roughly 18% stayed inconclusive and do not appear here. Some of the results follow.

Endpoint output: normalized growth of "CCn1cc(C(=O)O)c(=O)c2cc(F)c(N3CCNCC3)cc21" . Value?
0.985 (inactive)

What do you have for "O=C1CC[C@]23C=CC(=O)NCCCCNCCCNC(=O)/C=C/c4ccc(c2c4)O[C@@H]3C1" ?
0.959 (inactive)

Try this compound next: "NCCc1cccc(O)c1"
0.984 (inactive)

Then this compound: "NCCc1ccc(O)c(O)c1"
1 (inactive)

And for "CCCCCCc1ccc(O)cc1O" ?
0.986 (inactive)

Try "CCCCC1C(=O)N(c2ccccc2)N(c2ccccc2)C1=O" next.
0.972 (inactive)

Same question for "NCCc1ccc(O)cc1" please.
0.995 (inactive)

meta.source: PubChem BioAssay AID1159580
